- assay protocol: Phase I study CXR1002-001: plasma pharmacokinetics (LC-MS/MS)
- Type: in vivo, human
- experimental context: human, plasma, oral, 300 mg, Patient 014 Dose 300 mg; 507 hr; read-out: Concentration
readout kind: concentration at 507 h
Remember to follow the number with its unit.

QUERY: Look up and state reported concentration at 507 h for O=C(O)C(F)(F)C(F)(F)C(F)(F)C(F)(F)C(F)(F)C(F)(F)C(F)(F)F
RESULT: 374 µM

====

- assay protocol: Phase I study CXR1002-001: plasma pharmacokinetics (LC-MS/MS)
- Type: in vivo, human
- experimental context: human, plasma, oral, 1000 mg, Patient 040, 1000 mg, person, plasma, 340 hr; read-out: Concentration
readout kind: concentration at 340 h (µM)
Give bare numbers, in µM.

QUERY: Look up and state reported concentration at 340 h for O=C(O)C(F)(F)C(F)(F)C(F)(F)C(F)(F)C(F)(F)C(F)(F)C(F)(F)F
RESULT: 476

====

- assay protocol: Phase I study CXR1002-001: plasma pharmacokinetics (LC-MS/MS)
- Assay type: in vivo, human
- experimental context: human, plasma, oral, 750 mg, Patient 028, 750 mg, person, plasma, 508 hr; read-out: Concentration
- Text: PK samples, PD (fasting) samples, blood glucose, and blood triglyceride samples, were taken over a 6-week period. Dose limiting toxicity (DLT) will be based on the toxicity assessments over the first 3-week period of the repeat dosing schedule. […]
readout kind: concentration at 508 h (µM)
One number for each entry, in µM.

QUERY: Look up and state reported concentration at 508 h for O=C(O)C(F)(F)C(F)(F)C(F)(F)C(F)(F)C(F)(F)C(F)(F)C(F)(F)F
RESULT: 581

====

- assay protocol: Phase I study CXR1002-001: plasma pharmacokinetics (LC-MS/MS)
- Assay type: in vivo, human
- experimental context: human, plasma, oral, 450 mg, Patient 017 Dose 450 mg; 338 hr; read-out: Concentration
readout kind: concentration at 338 h (µM)
Give bare numbers, in µM.

QUERY: Look up and state reported concentration at 338 h for O=C(O)C(F)(F)C(F)(F)C(F)(F)C(F)(F)C(F)(F)C(F)(F)C(F)(F)F
RESULT: 325

====

- assay protocol: Phase I study CXR1002-001: plasma pharmacokinetics (LC-MS/MS)
- Format: in vivo, human
- experimental context: human, plasma, oral, 600 mg, Patient 018, 600 mg, person, plasma, 2 hr; read-out: Concentration
readout kind: concentration at 2 h

QUERY: Look up and state reported concentration at 2 h for O=C(O)C(F)(F)C(F)(F)C(F)(F)C(F)(F)C(F)(F)C(F)(F)C(F)(F)F [CXR1002]
RESULT: 339 µM

====

- assay protocol: Phase I study CXR1002-001: plasma pharmacokinetics (LC-MS/MS)
- Type: in vivo, human
- experimental context: human, plasma, oral, 100 mg, Patient 006 Dose 100 mg; 0 hr
readout kind: concentration at 0 h (nM)
Answers are plain numbers, in nM.

QUERY: Look up and state reported concentration at 0 h for O=C(O)C(F)(F)C(F)(F)C(F)(F)C(F)(F)C(F)(F)C(F)(F)C(F)(F)F
RESULT: 210

====

- assay protocol: Phase I study CXR1002-001: plasma pharmacokinetics (LC-MS/MS)
- Assay type: in vivo, human
- experimental context: human, plasma, oral, 600 mg, Patient 024, 600 mg, person, plasma, 171 hr; read-out: Concentration
readout kind: concentration at 171 h (µM)
One number for each entry, in µM.

QUERY: Look up and state reported concentration at 171 h for O=C(O)C(F)(F)C(F)(F)C(F)(F)C(F)(F)C(F)(F)C(F)(F)C(F)(F)F
RESULT: 441

====

- assay protocol: Phase I study CXR1002-001: plasma pharmacokinetics (LC-MS/MS)
- Assay type: in vivo, human
- experimental context: human, plasma, oral, 300 mg, Patient 014 Dose 300 mg; 864 hr (Day 37); read-out: Concentration
readout kind: concentration at 864 h (µM)
Answers are plain numbers, in µM.

QUERY: Look up and state reported concentration at 864 h for O=C(O)C(F)(F)C(F)(F)C(F)(F)C(F)(F)C(F)(F)C(F)(F)C(F)(F)F
RESULT: 488

====

- assay protocol: Phase I study CXR1002-001: plasma pharmacokinetics (LC-MS/MS)
- Assay type: in vivo, human
- experimental context: human, plasma, oral, 50 mg, Patient 001 Dose 50 mg; 48 hr
readout kind: concentration at 48 h (µM)
Answers are plain numbers, in µM.

QUERY: Look up and state reported concentration at 48 h for O=C(O)C(F)(F)C(F)(F)C(F)(F)C(F)(F)C(F)(F)C(F)(F)C(F)(F)F
RESULT: 12.8

====

- assay protocol: Phase I study CXR1002-001: plasma pharmacokinetics (LC-MS/MS)
- Type: in vivo, human
- experimental context: human, plasma, oral, 600 mg, Patient 022, 600 mg, person, plasma, 2 hr; read-out: Concentration
readout kind: concentration at 2 h (µM)
Answers are plain numbers, in µM.

QUERY: Look up and state reported concentration at 2 h for O=C(O)C(F)(F)C(F)(F)C(F)(F)C(F)(F)C(F)(F)C(F)(F)C(F)(F)F
RESULT: 193

====

- assay protocol: Phase I study CXR1002-001: plasma pharmacokinetics (LC-MS/MS)
- Format: in vivo, human
- experimental context: human, plasma, oral, 300 mg, Patient 012 Dose 300 mg; 24 hr (Day 2); read-out: Concentration
- Text: PK samples, PD (fasting) samples, blood glucose, and blood triglyceride samples, were taken over a 6-week period. Dose limiting toxicity (DLT) will be based on the toxicity assessments over the first 3-week period of the repeat dosing schedule. […]
readout kind: concentration at 24 h (µM)
Give bare numbers, in µM.

QUERY: Look up and state reported concentration at 24 h for O=C(O)C(F)(F)C(F)(F)C(F)(F)C(F)(F)C(F)(F)C(F)(F)C(F)(F)F
RESULT: 74

====

- Test system: SK-OV3
- assay protocol: ATP depletion cytotoxicity assay 48 hr
- Format: cell-based, human
- experimental context: Homo sapiens, SK-OV-3, 48 h, read-out: IC50 1-4 (independent replicates)
readout kind: IC50
Remember to follow the number with its unit.

QUERY: Look up and state reported IC50 for O=C(O)C(F)(F)C(F)(F)C(F)(F)C(F)(F)C(F)(F)C(F)(F)C(F)(F)F
RESULT: 550 µM

====

- assay protocol: Phase I study CXR1002-001: plasma pharmacokinetics (LC-MS/MS)
- Format: in vivo, human
- experimental context: human, plasma, oral, 1000 mg, Patient 040, 1000 mg, person, plasma, 170 hr; read-out: Concentration
readout kind: concentration at 170 h (µM)
One number for each entry, in µM.

QUERY: Look up and state reported concentration at 170 h for O=C(O)C(F)(F)C(F)(F)C(F)(F)C(F)(F)C(F)(F)C(F)(F)C(F)(F)F [CXR1002]
RESULT: 368

====

- assay protocol: Phase I study CXR1002-001: plasma pharmacokinetics (LC-MS/MS)
- Format: in vivo, human
- experimental context: human, plasma, po, 1000 mg, Patient 041, 1000 mg weekly oral dose, Time 24 hr (Day 2); read-out: Concentration (plasma level)
readout kind: concentration at 24 hr (µM)
Numbers only, in µM.

QUERY: Look up and state reported concentration at 24 hr for O=C(O)C(F)(F)C(F)(F)C(F)(F)C(F)(F)C(F)(F)C(F)(F)C(F)(F)F [CXR1002]
RESULT: 175

====

- assay protocol: Phase I study CXR1002-001: plasma pharmacokinetics (LC-MS/MS)
- Format: in vivo, human
- experimental context: human, plasma, oral, 950 mg, Patient 031, 950 mg, person, plasma, 506 hr; read-out: Concentration
readout kind: concentration at 506 h (µM)
Numbers only, in µM.

QUERY: Look up and state reported concentration at 506 h for O=C(O)C(F)(F)C(F)(F)C(F)(F)C(F)(F)C(F)(F)C(F)(F)C(F)(F)F
RESULT: 794

====

- assay protocol: Phase I study CXR1002-001: plasma pharmacokinetics (LC-MS/MS)
- Format: in vivo, human
- experimental context: human, plasma, oral, 750 mg, Patient 027, 750 mg, person, plasma, 840 hr (Day 36); read-out: Concentration
readout kind: concentration at 840 h (µM)
Numbers only, in µM.

QUERY: Look up and state reported concentration at 840 h for O=C(O)C(F)(F)C(F)(F)C(F)(F)C(F)(F)C(F)(F)C(F)(F)C(F)(F)F [CXR1002]
RESULT: 673

====

- assay protocol: Phase I study CXR1002-001: plasma pharmacokinetics (LC-MS/MS)
- Format: in vivo, human
- experimental context: human, plasma, oral, 950 mg, Patient 031, 950 mg, person, plasma, 168 hr (Day 8); read-out: Concentration
readout kind: concentration at 168 h (µM)
Give bare numbers, in µM.

QUERY: Look up and state reported concentration at 168 h for O=C(O)C(F)(F)C(F)(F)C(F)(F)C(F)(F)C(F)(F)C(F)(F)C(F)(F)F
RESULT: 237
